From: ChEMBL document CHEMBL4350955

Target: Cytochrome P450 2C9 (Homo sapiens)
Sequence (P11712 whole entry): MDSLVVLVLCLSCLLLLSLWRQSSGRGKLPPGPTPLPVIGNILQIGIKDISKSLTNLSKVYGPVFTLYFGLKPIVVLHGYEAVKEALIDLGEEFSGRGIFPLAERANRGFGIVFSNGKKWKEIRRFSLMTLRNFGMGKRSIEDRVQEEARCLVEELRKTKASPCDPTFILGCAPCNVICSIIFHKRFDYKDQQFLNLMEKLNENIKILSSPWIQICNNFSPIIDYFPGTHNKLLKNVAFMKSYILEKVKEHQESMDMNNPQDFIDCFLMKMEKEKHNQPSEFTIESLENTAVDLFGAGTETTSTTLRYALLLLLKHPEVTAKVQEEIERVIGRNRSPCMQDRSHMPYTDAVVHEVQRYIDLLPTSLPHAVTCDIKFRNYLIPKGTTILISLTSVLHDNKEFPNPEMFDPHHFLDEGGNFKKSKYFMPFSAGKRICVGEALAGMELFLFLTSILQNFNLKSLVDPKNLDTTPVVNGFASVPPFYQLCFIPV
Assay: Inhibition of recombinant human CYP2C9 expressed in Escherichia coli assessed as maximum reduction in metabolite formation using coumarin based substrate by fluorescence assay
quantity: pIC50
One number for each entry, as −log10 of the molar value.

Look over these answered cases.
> print(dat)
                                chem.smiles                         system.name  quantity  value.observed
1  COc1cc(NC(=O)[C@@H]2CCCC[C@H]2C(=O)c2ccc(-c3cc[nH]n3)cc2)ncn1  Cytochrome P450 2C9 (Homo sapiens)     pIC50            5.30
2  Cn1ncc(NC(=O)[C@@H]2CCCC[C@H]2C(=O)c2ccc(-c3cc[nH]n3)cc2)c1C(F)(F)F  Cytochrome P450 2C9 (Homo sapiens)     pIC50            5.20
3  Cc1cc(-c2ccc(C(=O)[C@@H]3CCCC[C@H]3C(=O)Nc3cn(C)nc3C#N)cc2)n[nH]1  Cytochrome P450 2C9 (Homo sapiens)     pIC50            5.10
4  Cn1ncc(NC(=O)[C@@H]2C[C@@H]3C[C@@H]3C[C@H]2C(=O)c2ccc(-c3cc[nH]n3)cc2)c1C(F)(F)F  Cytochrome P450 2C9 (Homo sapiens)     pIC50            5.30
5  Cc1cc(-c2ccc(C(=O)[C@@H]3CCCC[C@H]3C(=O)Nc3cn(C)nc3C(N)=O)cc2)n[nH]1  Cytochrome P450 2C9 (Homo sapiens)     pIC50            5.00

Would you kindly look at the next entry?
# returns recorded pIC50 (system: Cytochrome P450 2C9 (Homo sapiens)) for "Cc1cc(-c2ccc3c([C@@H]4CCCC[C@H]4C(=O)Nc4cn(C)nc4C(N)=O)noc3c2)n[nH]1"
5.10
